// provenance: patent US4394503A

Assay: in vivo
Conditions: mouse, im, 10 mg/kg
endpoint_label: concentration at 1 h (ng/mL)
Report the figure in ng/mL without appending any unit label.

CSc1cc[n+](CC2=C(C(=O)[O-])N3C(=O)C(NC(=O)/C(=N\OC(C)(C)C(=O)O)c4csc(N)n4)C3SC2)cc1 (centres unmarked) [Example 2]: 1100

Kindly review the next compound as well.
// query Please give the measured concentration at 1 h for this compound: CC(C)(O/N=C(\C(=O)N[C@@H]1C(=O)N2C(C(=O)[O-])=C(C[n+]3ccccc3)CS[C@H]12)c1csc(N)n1)C(=O)O [Ceftazidime, ceftazidime, reference compound]
// result 1800

====

Assay: in vivo
Details: mouse, im, 20 mg/kg
endpoint_label: concentration at 0.5 h
Provide the measurement as a number trailed by its unit.

CSc1cc[n+](CC2=C(C(=O)[O-])N3C(=O)C(NC(=O)/C(=N\OC(C)(C)C(=O)O)c4csc(N)n4)C3SC2)cc1 (centres unmarked): 9300 ng/mL

Turning to the following compound.
// query Which concentration at 0.5 h is reported for this compound? CC(C)(O/N=C(\C(=O)N[C@@H]1C(=O)N2C(C(=O)[O-])=C(C[n+]3ccccc3)CS[C@H]12)c1csc(N)n1)C(=O)O [Ceftazidime, ceftazidime, reference compound]
// result 11000 ng/mL

====

Test: in vivo
Details: mouse, im, 10 mg/kg
endpoint_label: concentration at 10 min (ng/mL)
The figure you give is taken to be in ng/mL; do not add the unit.

CC(C)(O/N=C(\C(=O)N[C@@H]1C(=O)N2C(C(=O)[O-])=C(C[n+]3ccccc3)CS[C@H]12)c1csc(N)n1)C(=O)O [Ceftazidime, ceftazidime, reference compound]: 8000

--- query ---
// query Record request: concentration at 10 min value, item CSc1cc[n+](CC2=C(C(=O)[O-])N3C(=O)C(NC(=O)/C(=N\OC(C)(C)C(=O)O)c4csc(N)n4)C3SC2)cc1 (centres unmarked)
// result 4500

====

Experiment: in vivo
Conditions: mouse, im, 10 mg/kg
Recorded measurements of concentration at 1.5 h, one per entry
Value expressed in ng/mL; do not type the unit.

CC(C)(O/N=C(\C(=O)N[C@@H]1C(=O)N2C(C(=O)[O-])=C(C[n+]3ccccc3)CS[C@H]12)c1csc(N)n1)C(=O)O [Ceftazidime, ceftazidime, reference compound]: 400

// query Quick check: concentration at 1.5 h of CSc1cc[n+](CC2=C(C(=O)[O-])N3C(=O)C(NC(=O)/C(=N\OC(C)(C)C(=O)O)c4csc(N)n4)C3SC2)cc1 (centres unmarked) ?
// result 450

====

Here the recorded concentration at 40 min is given for each entry.
Experiment: in vivo
Conditions: mouse, im, 10 mg/kg
Respond numerically; units are ng/mL and should not be typed.

CSc1cc[n+](CC2=C(C(=O)[O-])N3C(=O)C(NC(=O)/C(=N\OC(C)(C)C(=O)O)c4csc(N)n4)C3SC2)cc1 (centres unmarked): 3200

Consider the additional compound presented here.
// query Fill blank: measured concentration at 40 min of the compound CC(C)(O/N=C(\C(=O)N[C@@H]1C(=O)N2C(C(=O)[O-])=C(C[n+]3ccccc3)CS[C@H]12)c1csc(N)n1)C(=O)O [Ceftazidime, ceftazidime, reference compound] is ____.
// result 3900
